tested on: CAKI-1 renal; assay: NCI-60 one-dose screen, 48 h (100 = growth as untreated, 0 = no growth, -100 = all killed); conditions: 10 µM unless noted
About 83,000 compounds went through this panel and 20% of them were active in at least one assay; those are over-represented in the sample as a whole.
Classify by measured growth: y if it is equal to or exceeds 40%, n if it is smaller.

Task item: Hi, just wondering whether CC(=NCc1ccccc1)c1ccc(O)cc1O shows growth of 40% or higher.
Reply: y

Task item: Continue with Nc1ncnc2c1C(c1ccc([N+](=O)[O-])cc1)c1sc3c(F)cccc3c1O2 (stereo not given)
Reply: y

Task item: Continue with O=C(CC1(O)C(=O)Nc2ccc(Br)cc21)c1ccc(Cl)cc1 (stereo not given)
Reply: y

Task item: Continue with CC/C(=C(/c1ccc(Cl)cc1)c1ccc(OCCN2CCOCC2)cc1)c1ccccc1
Reply: y

Task item: Continue with O=C(Nc1ncc(Cc2cccc(C(F)(F)F)c2)s1)c1ccc2c(c1)OCCO2
Reply: n

---

system: UO-31 renal; assay: NCI-60 one-dose screen, 48 h; conditions: 10 µM unless noted
The panel holds about 83,000 compounds, 20% with a hit somewhere; the sample as a whole holds those more often. Calls of active or inactive are those of the source. How the source made its calls: active means growth percent below 10; inactive means the rest.
Your response should consist of one outcome taken from active, inactive

[[record]]
smiles_input = "Cc1ccc(C(=O)N(CCCN)[C@@H](c2nc3cc(Cl)ccc3c(=O)n2Cc2ccccc2)C(C)C)cc1"
assigned_class = "active"

[[record]]
smiles_input = "CCOc1nc(-c2ccccc2)cc2c(O)c(C(=O)N/N=C/c3ccc(N(C)C)cc3)[nH]c(=O)c12"
assigned_class = "inactive"

[[record]]
smiles_input = "Clc1ccc(CNc2ccc3nc(CCC4CCCCC4)[nH]c3c2)cc1"
assigned_class = "inactive"

[[record]]
smiles_input = "N#C/C(=N\\Nc1ccc(Cl)cc1)C(=O)Nc1cc(-c2ccccc2)nn1-c1ccccc1"
assigned_class = "inactive"


Task item: Lab log entry: Cc1ccc(C(=O)Nc2nc3c(s2)CN(Cc2ccccc2)CC3)cn1 — outcome as called in the assay?
Reply: inactive

Task item: Continue with COc1cc(C=O)ccc1Oc1ccc([N+](=O)[O-])cc1[N+](=O)[O-]
Reply: inactive

Task item: Continue with COc1cc(CO)cc2cc3ccccc3nc12
Reply: inactive

---

Form field: growth (one value per entry).
tested on: A549/ATCC NSCLC; assay: NCI-60 one-dose screen, 48 h (100 = growth as untreated, 0 = no growth, -100 = all killed); settings: 10 µM unless noted
The panel holds about 83,000 compounds, 20% with a hit somewhere; the sample as a whole holds those more often.
Numeric answer only, unit % assumed.

Task item: Please report the recorded growth for Cc1ccc(/C=C/c2c(C(=O)/C=C/c3ccccc3)c(C)nc3ccccc23)cc1 .
Reply: 30.8

Task item: Continue with Clc1nccc2c(-c3csc(-c4c[nH]c5ccc(Br)cc45)n3)c[nH]c12
Reply: 15.1

Task item: Continue with COc1nc2ccc(C)cc2cc1/C=[N+](\[O-])c1ccccc1
Reply: 92.4

Task item: Continue with CCOC(=O)c1ccc(Nc2ncnc3c2cnn3-c2cccc(F)c2)cc1
Reply: 102

Task item: Continue with COc1cc(/C=C2\C(=O)N(CCCCn3c4ccccc4c(=O)c4ccccc43)c3ccccc32)cc(OC)c1O
Reply: 95.4

---

Test system: CAKI-1 renal
Assay: NCI-60 one-dose screen, 48 h (100 = growth as untreated, 0 = no growth, -100 = all killed)
Settings: 10 µM unless noted
Experimental: Growth inhibition of the CAKI-1 human tumor cell line is measured as a screen for anti-cancer activity. Cells are grown in 96 well plates and exposed to the test compound for 48 hours. Compounds are tested at a single concentration, which is 10^-5 M for most compounds. The reported endpoint is percent growth (GI% or GIPRCNT), where numbers from 0 - 100% represent growth inhibition, and numbers from -100% - 0 represent cell death. For example, a value of 40 represents 60% growth inhibition. […]
About 83,000 compounds went through this panel and 20% of them were active in at least one assay; those are over-represented in the sample as a whole.
ATTRIBUTE MEASURED: growth (%)
Numeric answer only, unit % assumed.

[[record]]
molecule = "CCOC(=O)c1nnn(Cc2cc(=O)oc3c2ccc2ccccc23)c1C"
target_of_assay = "CAKI-1 renal"
measured_number = 98


Task item: Please report the recorded growth for Nc1c(C(=O)Nc2ccncc2)sc2nc3c(cc12)CCCCCCCC3 .
Reply: -94.8

Task item: Continue with O=c1c(/C=C/c2ccco2)nnc2sc(Nc3ccc(Cl)cc3)nn12
Reply: 98.5

Task item: Continue with CC(=O)N1N=C(c2ccc(F)cc2)CC1c1sc(N(C)Cc2ccccc2)nc1Cl (stereo not given)
Reply: 83.9

Task item: Continue with CCOc1nc(-c2ccccc2)cc2c(O)c(C(=O)N/N=C/c3ccc(N(C)C)cc3)[nH]c(=O)c12
Reply: 108

Task item: Continue with Nc1nc(CSc2n[nH]c(N)n2)nc(Nc2ccccc2)n1
Reply: 87.6

Task item: Continue with O=C(Cn1cc(CN2CCN(c3ccnc4cc(Cl)ccc34)CC2)nn1)Nc1cccc([N+](=O)[O-])c1
Reply: 76.4

Task item: Continue with CCOC(=O)c1c(-c2ccc(OC)cc2)c(C#N)c2c(C#N)c(N)nn2c1N
Reply: 39.8

Task item: Continue with C#CCOCC1CN(C)C(=O)O1 (stereo not given)
Reply: 104

Task item: Continue with CN1CCN(Cc2ccc(NC(=O)c3nc4ccc5[nH]ncc5c4c4c3CCCC4)cc2C(F)(F)F)CC1
Reply: -46.6

---

tested on: SW-620 colon; experiment: NCI-60 one-dose screen, 48 h; conditions: 10 µM unless noted
The panel holds about 83,000 compounds, 20% with a hit somewhere; the sample as a whole holds those more often. Active and inactive are the calls of the source. The calls were made as follows: active = growth percent below 10; inactive = the rest.
Your response should consist of one outcome taken from active, inactive

// known answers, use as guide
[[record]]
molecule = "O=[N+]([O-])c1cc(C(F)(F)F)ccc1Sc1ccc(C(F)(F)F)cc1[N+](=O)[O-]"
assigned_class = "inactive"

[[record]]
molecule = "Cc1ccc(C(=O)Nc2nc3c(s2)CN(Cc2ccccc2)CC3)cn1"
assigned_class = "inactive"

[[record]]
molecule = "c1cc(NCCCCN2CCOCC2)c2ccc3c(ccc4c(NCCN5CCOCC5)ccnc43)c2n1"
assigned_class = "active"

[[record]]
molecule = "O=C(NNc1ccccc1)C1CCCN1 (stereo not given)"
assigned_class = "inactive"


Task item: Lab log entry: CCOC(=O)n1cc(-c2nonc2-c2cn(C)c3ccc(OC)cc23)c2cc(F)ccc21 — outcome as called in the assay?
Reply: inactive

---

system: UACC-257 melanoma; assay: NCI-60 one-dose screen, 48 h (100 = growth as untreated, 0 = no growth, -100 = all killed); settings: 10 µM unless noted
This is part of a sample that, as a whole, favours compounds with a hit. Of some 83,000 tested, about 20% had one in any assay.
Each record is given 1.0 if its reported growth is strictly below 70%. Records at or above 70% are given 0.0.

// known answers, use as guide
[[record]]
molecule = "N#Cc1ccccc1-c1ccc(Cn2c(-c3cscn3)nc3c(Cl)cccc32)cc1"
assigned_class = 0.0

[[record]]
molecule = "Cn1ccnc1CN1CCSC(C(=O)Nc2ccccc2)C1 (stereo not drawn)"
assigned_class = 0.0

[[record]]
molecule = "[2H]C([2H])([2H])Oc1cc(F)ccc1/C=C/C(=O)/C=C(/C=C/c1ccc(F)cc1OC([2H])([2H])[2H])OB(F)F"
assigned_class = 1.0


Task item: Please let me know if COc1ccc(C/C(C)=C(\c2ccc(O)cc2)c2ccc(OCCCN(C)C)cc2)cc1 shows growth below 70%.
Reply: 0.0

Task item: Continue with COc1nc(=O)n(C2C=CC(=O)O2)cc1F (stereo not drawn)
Reply: 0.0

Task item: Continue with [Cu+].[NH-][C@H]1C[N-]C(=O)[C@H]([C@H]2CCN=C(N)N2)[N-]C(=O)/C(=C\NC(N)=O)[N-]C(=O)[C@H](CNC(=O)C[C@@H](N)CCCN)[N-]C(=O)[C@H](CO)[N-]C1=O
Reply: 0.0

Task item: Continue with COc1nc2ccc(C)cc2cc1/C=[N+](\[O-])c1ccccc1
Reply: 0.0

Task item: Continue with N#CSc1c[nH]c2ccc(/C=C/C(=O)/C=C(/C=C/c3ccc4[nH]cc(SC#N)c4c3)OB(F)F)cc12
Reply: 1.0

Task item: Continue with COc1ccc(-c2nn3c(-c4cc(F)c(Cl)cc4Cl)nnc3s2)cc1
Reply: 0.0

Task item: Continue with COc1cc(/C=C/C(=O)c2ccc(NC(=O)CSc3nnc(-c4cc(-c5ccccc5)nc5ccccc45)n3-c3ccccc3)cc2)cc(OC)c1OC
Reply: 0.0

Task item: Continue with COC(=O)c1c2c(c(C)[n+]([O-])c1C)C(=O)C(NCCN1CCOCC1)=CC2=O
Reply: 1.0

Task item: Continue with COc1cc2nc3cc([N+](=O)[O-])ccc3c(NCCNCC(C)(C)O)c2cc1OC
Reply: 1.0

Task item: Continue with CN1CCN(c2ccc(Nc3ncc(C(N)=O)c(NCCCNC(=O)C4CCC4)n3)cc2)CC1
Reply: 0.0
